Test system: H1N1 (influenza virus)
CONDITION SUMMARY: H1N1 in host cell MDCK
With a cut-off of 50, any SI (TC50/IC50) strictly below it is called true (1); any SI (TC50/IC50) meeting it or above is called false (0).

Would you please look over these solved cases?
{"columns": ["MOLECULE", "ASSIGNED CATEGORY"],
 "data": [
  ["O=C(O)c1cc(F)ccc1/C=N/Nc1nc(-c2ccccc2Cl)cs1", "false (0)"],
  ["CC(C)N(/N=C/c1ccccc1C(=O)O)c1nc(-c2ccccc2Cl)cs1", "true (1)"],
  ["CN(/N=C/c1ccccc1C(=O)O)c1nc(-c2cccc(Cl)c2)cs1", "true (1)"]
]}

Hello, is SI (TC50/IC50) of the following molecule strictly smaller than 50? Cc1sc(N/N=C/c2ccccc2C(=O)O)nc1-c1ccccc1Cl
true (1)

Also check Cc1sc(N(C)/N=C/c2ccccc2C(=O)O)nc1-c1ccccc1
false (0)

Also check Cc1ccc(/C=N/N(C)c2nc(-c3ccccc3Cl)cs2)c(C(=O)O)c1
false (0)

Also check Cc1ccc(/C=N/N(C)c2nc(-c3ccccc3)c(C)s2)c(C(=O)O)c1
true (1)

Also check Cc1sc(N(C)/N=C/c2ccccc2C(=O)O)nc1-c1ccccc1Cl
true (1)

Also check O=C(O)c1c(F)cccc1/C=N/Nc1nc(-c2ccccc2Cl)cs1
true (1)

Also check CN(/N=C/c1ccccc1C(=O)O)c1nc(-c2cc(Cl)ccc2Cl)cs1
true (1)

Also check Cc1sc(N/N=C/c2ccccc2C(=O)O)nc1-c1ccccc1 [Compound 17]
true (1)

Also check O=C(O)c1ccccc1/C=N/N(CCO)c1nc(-c2ccccc2Cl)cs1
true (1)

Also check CCc1sc(N/N=C/c2ccccc2C(=O)O)nc1-c1ccccc1Cl
true (1)

Also check CCCC(C)N(/N=C/c1ccccc1C(=O)O)c1nc(-c2ccccc2Cl)cs1 (stereo not drawn)
true (1)

Also check CN(/N=C/c1ccccc1C(=O)O)c1nc(-c2ccccc2Cl)cs1
false (0)

Also check CCC(C)N(/N=C/c1ccccc1C(=O)O)c1nc(-c2ccccc2Cl)cs1 (stereo not drawn)
true (1)

Also check CCCC(C)N(/N=C/c1ccccc1C(=O)O)c1nc(-c2ccccc2Cl)c(C)s1 (stereo not drawn)
true (1)

---

System: H3N2 (influenza virus)
CONDITION SUMMARY: H3N2 in host cell MDCK
OBSERVED PROPERTY: SI (TC50/IC50)
Lab note: jot the number down without any unit.

Worked examples, 4 compounds total:
{"columns": ["CHEM SMILES", "ASSAYED SYSTEM", "REPORTED RESULT"],
 "data": [
  ["CC(C)N(/N=C/c1ccccc1C(=O)O)c1nc(-c2ccccc2Cl)cs1", "H3N2 (influenza virus)", 0.31],
  ["Cc1ccc(/C=N/Nc2nc(-c3ccccc3Cl)cs2)c(C(=O)O)c1", "H3N2 (influenza virus)", 330],
  ["O=C(O)c1ccccc1/C=N/Nc1nc(-c2cc(Cl)ccc2Cl)cs1", "H3N2 (influenza virus)", 45.6],
  ["CN(/N=C/c1ccc(C(F)(F)F)cc1C(=O)O)c1nc(-c2ccccc2Cl)cs1", "H3N2 (influenza virus)", 233]
]}

Query compound follows.
Need SI (TC50/IC50) of O=C(O)c1ccccc1/C=N/N(CCO)c1nc(-c2ccccc2Cl)cs1 , thanks.
0.5

---

Test system: Dengue Virus 2 (type 2 dengue virus)
EXPERIMENT NOTES: Inhibition of viral replication (CPE) at cellular level, Dengue Virus 2 in Vero
Type: cell-based
CONDITION SUMMARY: Dengue Virus 2 in host cell Vero
OBSERVED PROPERTY: SI (TC50/IC50)
Lab note: jot the number down without any unit.

Worked examples, 8 molecules total:
{"columns": ["MOLECULE", "ASSAYED SYSTEM", "SI (TC50/IC50)"],
 "data": [
  ["O=C(O)c1ccccc1/C=N/Nc1nc(-c2ccccc2Cl)cs1 [Compound 16]", "Dengue Virus 2 (type 2 dengue virus)", 167],
  ["O=C(O)c1ccccc1/C=N/Nc1nc(-c2cc(Cl)ccc2Cl)cs1 [Compound 55]", "Dengue Virus 2 (type 2 dengue virus)", 110],
  ["O=C(O)c1cc(F)ccc1/C=N/Nc1nc(-c2ccccc2Cl)cs1 [Compound 10-1]", "Dengue Virus 2 (type 2 dengue virus)", 300],
  ["O=C(O)c1cc(F)c(F)cc1/C=N/Nc1nc(-c2ccccc2Cl)cs1 [Compound 23-1]", "Dengue Virus 2 (type 2 dengue virus)", 200],
  ["Cc1sc(N(C)/N=C/c2ccccc2C(=O)O)nc1-c1ccccc1 [Compound 12]", "Dengue Virus 2 (type 2 dengue virus)", 65],
  ["Cc1ccc(/C=N/Nc2nc(-c3ccccc3Cl)cs2)c(C(=O)O)c1 [Compound 9-1]", "Dengue Virus 2 (type 2 dengue virus)", 125.8],
  ["Cc1ccc(/C=N/N(C)c2nc(-c3ccccc3Cl)cs2)c(C(=O)O)c1 [Compound 9]", "Dengue Virus 2 (type 2 dengue virus)", 106],
  ["CN(/N=C/c1ccccc1C(=O)O)c1nc(-c2ccccc2Cl)cs1 [Compound 1]", "Dengue Virus 2 (type 2 dengue virus)", 145]
]}

Identify the measured SI (TC50/IC50) of CN(/N=C/c1ccc(F)cc1C(=O)O)c1nc(-c2ccccc2Cl)cs1 [Compound 10] for Dengue Virus 2 (type 2 dengue virus).
460

Also check CCN(/N=C/c1ccccc1C(=O)O)c1nc(-c2ccccc2Cl)cs1 [Compound 2]
68.6

Also check O=C(O)c1cc(C(F)(F)F)ccc1/C=N/Nc1nc(-c2ccccc2Cl)cs1 [Compound 8-1]
325

Also check Cc1sc(N/N=C/c2ccccc2C(=O)O)nc1-c1ccccc1 [Compound 12-1]
59

Also check CN(/N=C/c1ccc(C(F)(F)F)cc1C(=O)O)c1nc(-c2ccccc2Cl)cs1 [Compound 8]
211

---

Tested on: H3N2 (influenza virus)
EXPERIMENT NOTES: microbe, parasite or virus in culture
CONDITION SUMMARY: Influenza A virus, H3N2, MDCK, H3N2 in host cell MDCK, CPE
pIC50: −log10 of the molar value.
Assign class by pIC50: not lower than 4 means TRUE; lower than 4 means FALSE.

{"columns": ["COMPOUND", "ASSIGNED CATEGORY"],
 "data": [
  ["O=C(O)c1c(F)cccc1/C=N/Nc1nc(-c2ccccc2Cl)cs1 [Compound 58]", "FALSE"],
  ["CN(/N=C/c1cc(N)c(F)cc1C(=O)O)c1nc(-c2ccccc2Cl)cs1 [Compound 25]", "FALSE"],
  ["CN(/N=C/c1ccccc1C(=O)O)c1nc(-c2cc(Cl)ccc2Cl)cs1 [Compound 19]", "TRUE"]
]}

Test whether the compound NC(=O)c1cccc(-c2csc(N/N=C/c3ccccc3C(=O)O)n2)c1 [Compound 53] records pIC50 of 4 or higher.
FALSE

Also check O=C(O)c1ccccc1/C=N/Nc1nc(-c2ccc3ccccc3c2)cs1 [Compound 56]
FALSE

Also check O=C(O)c1ccccc1/C=N/N(CCO)c1nc(-c2ccccc2Cl)cs1 [Compound 7]
FALSE

Also check CN(/N=C/c1ccccc1C(=O)O)c1nc(-c2cccc(Cl)c2)cs1 [Compound 21]
TRUE

Also check CCCC(C)N(/N=C/c1ccccc1C(=O)O)c1nc(-c2ccccc2Cl)c(C)s1 (stereo not drawn) [Compound 22]
FALSE

Also check CN(/N=C/c1ccccc1C(=O)O)c1nc(-c2ccccc2)cs1 [Compound 20]
TRUE

Also check O=C(O)c1ccccc1/C=N/Nc1nc(-c2ccccc2)cs1 [Compound 18]
TRUE

Also check Cc1sc(N/N=C/c2ccccc2C(=O)O)nc1-c1ccccc1Cl [Compound 15]
FALSE

Also check CCC(C)N(/N=C/c1ccccc1C(=O)O)c1nc(-c2ccccc2Cl)cs1 (stereo not drawn) [Compound 5]
FALSE

Also check CCCC(C)N(/N=C/c1ccccc1C(=O)O)c1nc(-c2ccccc2Cl)cs1 (stereo not drawn) [Compound 6]
FALSE

---

EXPERIMENT NOTES: in vitro
CONDITION SUMMARY: African green monkey, TC50, host cell Vero, Zika Virus table
Collected CC50 values appear next to each entry.
Quick note: give the figure in µM, leave out the unit.

Worked examples, 5 molecules total:
{"columns": ["CHEM SMILES", "VALUE UNITS", "CC50"],
 "data": [
  ["CCN(/N=C/c1ccccc1C(=O)O)c1nc(-c2ccccc2Cl)cs1", "µM", 24],
  ["O=C(O)c1ccccc1/C=N/Nc1nc(-c2ccccc2Cl)cs1", "µM", 20],
  ["Cc1sc(N(C)/N=C/c2ccccc2C(=O)O)nc1-c1ccccc1", "µM", 13],
  ["CN(/N=C/c1ccc(F)cc1C(=O)O)c1nc(-c2ccccc2Cl)cs1", "µM", 21],
  ["O=C(O)c1cc(C(F)(F)F)ccc1/C=N/Nc1nc(-c2ccccc2Cl)cs1", "µM", 66]
]}

Need CC50 of Cc1sc(N/N=C/c2ccccc2C(=O)O)nc1-c1ccccc1 , thanks.
33

Also check O=C(O)c1cc(F)ccc1/C=N/Nc1nc(-c2ccccc2Cl)cs1
89

Also check O=C(O)c1cc(F)c(F)cc1/C=N/Nc1nc(-c2ccccc2Cl)cs1
76

Also check Cc1ccc(/C=N/N(C)c2nc(-c3ccccc3Cl)cs2)c(C(=O)O)c1
15
